src = patent US20160185837A1

Target: T1, mouse GLP-1 receptor (mouse, UniProt O35659 22-463)
T1 sequence (looked up): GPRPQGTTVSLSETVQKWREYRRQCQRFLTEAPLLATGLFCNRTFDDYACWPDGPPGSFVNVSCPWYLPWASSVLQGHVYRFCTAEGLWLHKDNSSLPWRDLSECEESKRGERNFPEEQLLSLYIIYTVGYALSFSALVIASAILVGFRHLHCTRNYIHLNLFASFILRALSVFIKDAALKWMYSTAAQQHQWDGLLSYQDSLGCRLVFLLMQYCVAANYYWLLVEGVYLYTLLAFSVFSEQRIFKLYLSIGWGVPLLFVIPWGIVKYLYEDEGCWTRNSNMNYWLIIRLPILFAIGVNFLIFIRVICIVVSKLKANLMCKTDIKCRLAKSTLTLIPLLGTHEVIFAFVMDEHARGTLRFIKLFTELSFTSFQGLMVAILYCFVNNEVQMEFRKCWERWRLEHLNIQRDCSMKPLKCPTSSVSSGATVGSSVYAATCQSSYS
Assay: cell-based or functional assay
observationType: cAMP EC50 (nM)

• IP260 (Fc fusion) YSEGTFTSDYSKLLEEEAVQLFIEWLVKGPGGGGGSGGGGSGGGGSGGGGSATHTCPPCPAPEF = 5.3
• IP382 (Fc fusion) YSEGTFTSLYSKLLEEEAVRLFIEYLLAGGGGGGSGGGGSGGGGSGGGGSATHTCPPC = 16
• IP363 (Fc fusion) YSEGTFTSDYRMLKEEEAVRLFIEWLLAGGGGGGSGGGGSGGGGSGGGGSATHTCPPC = 11
